Recorded reduction of the size of the infarction, expressed with respect to the region at risk, one value per entry.
System: Male C57B6 mice
TEST: Murine model of myocardial infarction resulting from an ischemia-reperfusion episode
Assay type: in vivo
CONDITIONS_USED: 3 mg/kg intravenously 5 minutes before reperfusion; 45 min coronary occlusion, 24 hours of reperfusion; compared with the vehicle
QUANTITY_MEASURED: reduction of the size of the infarction, expressed with respect to the region at risk (%)

COc1cc(Cn2c(=O)c3cc(OC(CF)CF)ccc3n(C3CCN(C=O)CC3)c2=O)ccc1OC1CCCC1 [No. 56] :: 33
COc1ccc(Cn2c(=O)c3cc(OC(CF)CF)c(F)cc3n(C3CCN(C=O)CC3)c2=O)cc1OC [No. 233] :: 40
COc1ccc(Cn2c(=O)c3cc(OC(CF)CF)ccc3n(C3CCN(C=O)CC3)c2=O)cc1OC [No. 11] :: 43
COc1cc(Cn2c(=O)c3cc(OC(CF)CF)c(F)cc3n(C3CCN(C=O)CC3)c2=O)ccc1OCC1CC1 [No. 309] :: 32
